Hi there, I'd appreciate the recorded HEK-Blue, IL-1β, IC50 (Fab) for every entry that follows.
# tested.system: T1, human IL1RAP (hu-IL1RAP) on human cells (human, UniProt Q9NPH3 21-570)
# T1 sequence: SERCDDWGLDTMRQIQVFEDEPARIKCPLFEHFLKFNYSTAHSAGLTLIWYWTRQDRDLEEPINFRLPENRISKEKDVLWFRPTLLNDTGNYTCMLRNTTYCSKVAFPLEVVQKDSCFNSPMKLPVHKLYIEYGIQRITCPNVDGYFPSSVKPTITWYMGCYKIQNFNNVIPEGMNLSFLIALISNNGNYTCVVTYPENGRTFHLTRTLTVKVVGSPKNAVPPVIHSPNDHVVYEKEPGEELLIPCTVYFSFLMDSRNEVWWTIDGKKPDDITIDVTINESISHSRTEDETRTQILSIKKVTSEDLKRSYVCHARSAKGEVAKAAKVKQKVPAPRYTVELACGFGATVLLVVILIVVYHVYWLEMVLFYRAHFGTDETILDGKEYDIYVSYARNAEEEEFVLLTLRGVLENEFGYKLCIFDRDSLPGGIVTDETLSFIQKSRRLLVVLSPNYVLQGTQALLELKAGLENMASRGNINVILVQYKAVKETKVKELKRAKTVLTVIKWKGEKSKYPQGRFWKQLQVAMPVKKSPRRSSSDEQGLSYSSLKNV
# protocol.text: cell-based or functional assay
Give your result in nM as a bare value.

Name the recorded HEK-Blue, IL-1β, IC50 (Fab) of the item K10/H2 Fab (VL-A51Y, VH-R96D) (Fab, V domains shown, Fab with 8xHis tag) VH: EVQLVESGGGLVQPGGSLRLSCAASGFTFSNYAMSWVRQAPGKGLEWVATVTEGGDYNYYLDDVKGRFTISRDNAKNSLYLQMNSLRAEDTAVYYCARDDWPYFFDYWGQGTLVTVSS VL: DIQMTQSPSSLSASVGDRVTITCRASENIYSNLAWYQQKPGKSPKLLVYGYKNLADGVPSRFSGSGSGTDYTLTISSLQPEDFATYYCQHFWTTPRTFGGGTKVEIK in your answer. 0.552

Name the recorded HEK-Blue, IL-1β, IC50 (Fab) of the item K17/H3 Fab (VL-A51Y/W92K, VH-V51S) (Fab, V domains shown, Fab with 8xHis tag) VH: EVQLVESGGGLVQPGGSLRLSCAASGFTFSNYAMSWVRQAPGKGLEWVATSTEGGDYNYYLDDVKGRFTISRDNAKNSLYLQMNSLRAEDTAVYYCARDRWPYFFDYWGQGTLVTVSS VL: DIQMTQSPSSLSASVGDRVTITCRASENIYSNLAWYQQKPGKSPKLLVYGYKNLADGVPSRFSGSGSGTDYTLTISSLQPEDFATYYCQHFKTTPRTFGGGTKVEIK in your answer. 1.32

Name the recorded HEK-Blue, IL-1β, IC50 (Fab) of the item K17 Fab (VL A51Y/W92K) (Fab, V domains shown, Fab with 8xHis tag) VH: EVQLVESGGGLVQPGGSLRLSCAASGFTFSNYAMSWVRQAPGKGLEWVATVTEGGDYNYYLDDVKGRFTISRDNAKNSLYLQMNSLRAEDTAVYYCARDRWPYFFDYWGQGTLVTVSS VL: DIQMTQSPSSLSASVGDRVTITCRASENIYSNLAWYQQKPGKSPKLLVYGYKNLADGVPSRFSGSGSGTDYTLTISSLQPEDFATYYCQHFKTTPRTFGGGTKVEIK in your answer. 1.59

Name the recorded HEK-Blue, IL-1β, IC50 (Fab) of the item K13/H2 Fab (VL-A51Y/W92I, VH-R96D) (Fab, V domains shown, Fab with 8xHis tag) VH: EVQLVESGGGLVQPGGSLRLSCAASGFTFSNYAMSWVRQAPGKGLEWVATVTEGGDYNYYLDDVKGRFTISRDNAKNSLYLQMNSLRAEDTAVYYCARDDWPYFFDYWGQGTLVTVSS VL: DIQMTQSPSSLSASVGDRVTITCRASENIYSNLAWYQQKPGKSPKLLVYGYKNLADGVPSRFSGSGSGTDYTLTISSLQPEDFATYYCQHFITTPRTFGGGTKVEIK in your answer. 0.539

Name the recorded HEK-Blue, IL-1β, IC50 (Fab) of the item K13 Fab (VL A51Y/W92I) (Fab, V domains shown, Fab with 8xHis tag) VH: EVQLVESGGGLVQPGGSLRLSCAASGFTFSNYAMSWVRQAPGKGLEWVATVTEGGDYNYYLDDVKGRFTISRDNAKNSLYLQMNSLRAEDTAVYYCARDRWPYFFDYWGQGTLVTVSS VL: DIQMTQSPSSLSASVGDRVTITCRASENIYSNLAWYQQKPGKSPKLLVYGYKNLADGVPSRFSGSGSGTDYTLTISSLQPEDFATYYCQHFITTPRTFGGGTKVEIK in your answer. 0.94
